assay: self-splicing fitness, log relative to wild type (ln ratio); higher = more splicing; Tetrahymena group I intron in knt gene, E. coli kanamycin selection, DiMSum; sequences stand for … in CUCUCU…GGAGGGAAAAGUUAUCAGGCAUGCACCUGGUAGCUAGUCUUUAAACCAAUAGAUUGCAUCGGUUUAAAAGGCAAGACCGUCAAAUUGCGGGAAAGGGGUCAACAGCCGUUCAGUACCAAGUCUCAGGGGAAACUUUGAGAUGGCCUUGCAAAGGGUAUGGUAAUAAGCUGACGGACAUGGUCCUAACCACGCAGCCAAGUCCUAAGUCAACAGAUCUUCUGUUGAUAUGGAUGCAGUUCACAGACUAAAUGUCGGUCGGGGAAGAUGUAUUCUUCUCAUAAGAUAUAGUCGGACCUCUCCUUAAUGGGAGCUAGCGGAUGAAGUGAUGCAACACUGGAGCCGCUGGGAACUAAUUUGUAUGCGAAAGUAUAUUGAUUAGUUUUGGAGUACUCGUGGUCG; conditions: 30 °C;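 note: selection with 25 µg/mL kanamycin versus none on LB agar overnight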
The entries below come with measured self-splicing fitness (ln) values attached.
Reply briefly: the number, and no unit.

A selection of reference data follows.
AAUAAGCAAUAUUACGCACA | -0.471
GCGAAGCAAUAUUACGCGAU | -2.49
AAAGAGCAAUAUUACGCGGA | -3.29
UGGGAGCAAUAUUACGGACG | -1.52
CACGAGCAAUAUUACGACUG | -2.46
ACUAAGCAAUAUUACGUGAU | -1.65

Now, please, on to the next sequence.
Query: // fetch self-splicing fitness (ln) given entry `UUAGAGCAAUAUUACGCACG`
Result: -0.444

====

assay: self-splicing fitness, log relative to wild type (ln ratio); higher = more splicing; Tetrahymena group I intron in knt gene, E. coli kanamycin selection, DiMSum; sequences stand for … in CUCUCU…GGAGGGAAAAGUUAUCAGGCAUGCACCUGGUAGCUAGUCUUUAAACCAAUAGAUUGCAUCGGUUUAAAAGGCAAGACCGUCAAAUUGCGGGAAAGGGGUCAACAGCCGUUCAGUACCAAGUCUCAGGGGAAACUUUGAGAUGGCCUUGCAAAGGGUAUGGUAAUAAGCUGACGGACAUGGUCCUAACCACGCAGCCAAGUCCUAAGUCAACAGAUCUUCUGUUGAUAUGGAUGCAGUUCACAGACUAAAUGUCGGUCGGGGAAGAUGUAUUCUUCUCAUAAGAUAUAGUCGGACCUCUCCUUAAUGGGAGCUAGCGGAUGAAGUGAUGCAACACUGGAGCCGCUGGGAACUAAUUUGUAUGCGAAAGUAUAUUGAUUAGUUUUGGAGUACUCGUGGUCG; details: 30 °C
observation_type: self-splicing fitness (ln)
Reply briefly: the number, and no unit.

A selection of reference data follows.
GGUUAGCAAUAUUACGUAAG | -0.619
UAGAAGCAAUAUUACGACUG | -0.418
UGGUAGCAAUAUUACGGCCC | -0.562
GCUAAGCAAUAUUACGCCUC | -1.89
CUCCAGCAAUAUUACGUGCG | -3.63

Query: // fetch self-splicing fitness (ln) given entry `CAGUAGCAAUAUUACGGACG`
Result: -0.216

====

test: self-splicing fitness, log relative to wild type (ln ratio); higher = more splicing; Tetrahymena group I intron in knt gene, E. coli kanamycin selection, DiMSum; sequences stand for … in CUCUCU…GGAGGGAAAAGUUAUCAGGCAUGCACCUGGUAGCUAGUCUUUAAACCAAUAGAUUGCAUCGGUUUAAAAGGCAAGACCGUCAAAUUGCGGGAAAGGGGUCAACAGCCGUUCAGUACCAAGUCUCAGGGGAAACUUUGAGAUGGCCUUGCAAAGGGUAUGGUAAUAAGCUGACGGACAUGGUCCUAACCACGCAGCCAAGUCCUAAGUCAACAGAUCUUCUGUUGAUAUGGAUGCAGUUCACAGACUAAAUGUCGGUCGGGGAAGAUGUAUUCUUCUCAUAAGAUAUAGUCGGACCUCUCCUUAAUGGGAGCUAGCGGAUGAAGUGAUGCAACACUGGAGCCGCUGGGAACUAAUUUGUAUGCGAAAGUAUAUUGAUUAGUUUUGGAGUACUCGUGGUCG; settings: 37 °C
Consider the following partition of reported self-splicing fitness (ln) into named classes: category 1 (below -2), category 2 (-2 to below -0.2), category 3 (-0.2 or more)

ACCAAGCAAUAUUACGCCAG | category 2
CUCCAGCAAUAUUACGCACC | category 1
AAGUAGCAAUAUUACGCGGC | category 3

Query: Consider `GAGCAGCAAUAUUACGACCU` . To which self-splicing fitness (ln) class does it belong?
Result: category 3

Query: Consider `CAAUAGCAAUAUUACGUUUU` . To which self-splicing fitness (ln) class does it belong?
Result: category 1

Query: Consider `UUCUAGCAAUAUUACGAUCU` . To which self-splicing fitness (ln) class does it belong?
Result: category 1

Query: Consider `AUAGAGCAAUAUUACGGGUU` . To which self-splicing fitness (ln) class does it belong?
Result: category 2

Query: Consider `AGCAAGCAAUAUUACGACCA` . To which self-splicing fitness (ln) class does it belong?
Result: category 3
